- target.of.assay: P-glycoprotein (ABCB1, MDR1) (Homo sapiens, UniProt P08183)
- Sequence (P08183 whole entry): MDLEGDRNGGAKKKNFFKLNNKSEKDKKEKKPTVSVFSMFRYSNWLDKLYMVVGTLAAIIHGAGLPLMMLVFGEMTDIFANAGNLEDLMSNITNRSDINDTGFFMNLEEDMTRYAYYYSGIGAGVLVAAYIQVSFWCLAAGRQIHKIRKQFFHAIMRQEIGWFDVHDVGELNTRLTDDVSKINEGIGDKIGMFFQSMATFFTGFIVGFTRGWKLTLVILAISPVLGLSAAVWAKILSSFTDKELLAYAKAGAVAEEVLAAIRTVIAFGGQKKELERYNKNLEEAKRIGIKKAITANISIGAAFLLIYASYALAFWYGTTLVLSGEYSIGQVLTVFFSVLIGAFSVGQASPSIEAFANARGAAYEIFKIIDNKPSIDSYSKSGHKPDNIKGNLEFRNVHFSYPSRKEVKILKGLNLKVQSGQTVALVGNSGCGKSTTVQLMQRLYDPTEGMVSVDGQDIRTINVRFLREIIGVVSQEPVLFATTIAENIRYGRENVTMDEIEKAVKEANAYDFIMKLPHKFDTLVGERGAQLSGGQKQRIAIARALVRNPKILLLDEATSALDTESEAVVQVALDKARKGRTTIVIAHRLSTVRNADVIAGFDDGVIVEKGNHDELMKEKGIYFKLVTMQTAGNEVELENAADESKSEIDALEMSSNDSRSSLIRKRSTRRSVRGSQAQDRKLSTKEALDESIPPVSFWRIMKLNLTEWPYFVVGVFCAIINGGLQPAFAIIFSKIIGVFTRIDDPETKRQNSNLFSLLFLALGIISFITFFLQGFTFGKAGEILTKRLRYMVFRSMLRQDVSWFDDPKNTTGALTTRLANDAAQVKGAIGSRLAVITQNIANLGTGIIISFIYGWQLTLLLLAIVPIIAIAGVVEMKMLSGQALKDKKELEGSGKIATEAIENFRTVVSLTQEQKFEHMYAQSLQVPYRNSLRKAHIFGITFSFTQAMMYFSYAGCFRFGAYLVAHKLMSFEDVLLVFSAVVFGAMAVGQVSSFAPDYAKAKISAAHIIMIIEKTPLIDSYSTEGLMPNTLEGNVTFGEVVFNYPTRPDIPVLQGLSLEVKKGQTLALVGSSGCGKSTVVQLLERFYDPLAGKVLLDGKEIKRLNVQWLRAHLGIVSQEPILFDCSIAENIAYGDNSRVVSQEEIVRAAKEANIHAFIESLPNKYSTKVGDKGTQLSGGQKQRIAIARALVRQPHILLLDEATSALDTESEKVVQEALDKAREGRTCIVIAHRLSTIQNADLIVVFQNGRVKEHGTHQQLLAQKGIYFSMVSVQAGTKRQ
- assay.method.text: Human MDR1 Pgp inhibitory activity by using standard calcein-AM efflux method with the human leukemia CEM cells.
- Format: cell-based, CCRF-CEM
- condition.set: human, human leukemia CEM cells, probe calcein-AM
pIC50: −log10 of the molar value.
Quick list: pIC50 per entry.

{"columns": ["substance.smiles", "pIC50"],
 "data": [
  ["CC[C@@H](C)[C@@H]1NC(=O)[C@@H]2CCCN2C(=O)[C@H](Cc2ccccc2)N(C)C(=O)[C@H](Cc2ccccc2)NC(=O)[C@H](C(C)C)N(C)C(=O)[C@@H]([C@@H](C)CC)OC(=O)[C@H](C(C)(C)O)N(C)C(=O)[C@H](CC(C)C)NC(=O)[C@H](C(C)C)NC1=O", 5.12],
  ["CC[C@@H](C)[C@@H]1NC(=O)[C@@H]2CCCN2C(=O)[C@H](Cc2ccccc2)N(C)C(=O)[C@H](Cc2ccccc2)NC(=O)[C@H](C(C)C)N(C)C(=O)[C@@H]([C@@H](C)CC)OC(=O)[C@H]([C@H](C)CO)N(C)C(=O)[C@H](CC(C)C)NC(=O)[C@H](C(C)C)N(C)C1=O", 5.96],
  ["CC[C@@H](C)[C@@H]1NC(=O)[C@@H]2CCCN2C(=O)[C@H](Cc2ccccc2)N(C)C(=O)[C@H](C2CCCCC2)NC(=O)[C@H](C(C)C)N(C)C(=O)[C@@H]([C@@H](C)CC)OC(=O)[C@H](C(C)(C)O)N(C)C(=O)[C@H](CC(C)C)NC(=O)[C@H](C(C)C)N(C)C1=O", 5.23],
  ["CC[C@@H](C)[C@@H]1NC(=O)[C@@H]2CCCN2C(=O)[C@H]([C@H](O)c2ccccc2)N(C)C(=O)[C@H](Cc2ccccc2)NC(=O)[C@H](C(C)C)N(C)C(=O)[C@@H]([C@@H](C)CC)OC(=O)[C@H](C(C)(C)O)N(C)C(=O)[C@H](CC(C)C)NC(=O)[C@H](C(C)C)N(C)C1=O", 5.67],
  ["CC[C@H](C)[C@@H]1NC(=O)[C@@H]2CCCN2C(=O)[C@H](Cc2ccccc2)N(C)C(=O)[C@H](Cc2ccccc2)NC(=O)[C@H](C(C)C)N(C)C(=O)[C@@H]([C@@H](C)CC)OC(=O)[C@H](C(C)(C)O)N(C)C(=O)[C@H](CC(C)C)NC(=O)[C@H](C(C)C)N(C)C1=O", 5.64],
  ["CC[C@@H](C)[C@@H]1NC(=O)CCCCCCCNC(=O)[C@H](C(C)C)N(C)C(=O)[C@@H]([C@@H](C)CC)OC(=O)[C@H](C(C)(C)O)N(C)C(=O)[C@H](CC(C)C)NC(=O)[C@H](C(C)C)N(C)C1=O", 5.13],
  ["CC[C@@H](C)[C@@H]1NC(=O)[C@@H]2CCCN2C(=O)[C@H](Cc2ccccc2)N(C)C(=O)[C@H](Cc2ccccc2)NC(=O)[C@H](C(C)C)N(C)C(=O)[C@@H]([C@@H](C)CC)OC(=O)CN(C)C(=O)[C@H](CC(C)C)NC(=O)[C@H](C(C)C)N(C)C1=O", 6.05],
  ["CC[C@@H](C)[C@@H]1NC(=O)[C@@H]2CCCN2C(=O)[C@H](Cc2ccccc2)N(C)C(=O)[C@H](Cc2ccccc2)NC(=O)[C@H](C(C)C)N(C)C(=O)[C@@H]([C@@H](C)CC)OC(=O)C(=C(C)C)N(C)C(=O)[C@H](CC(C)C)NC(=O)[C@H](C(C)C)N(C)C1=O", 6.74]
]}

Attribution: ChEMBL document CHEMBL1133762
